Catalogue of TGI values
# Tested on: COLO 205 colon
# test: NCI tumour cell line growth inhibition, 48 h

Observe how each entry below is paired with its result.
* Nc1nc(Cl)c2ncn(Cc3ccc(C45CC6CC(CC(C6)C4)C5)c(O)c3)c2n1 | 27.8 µM
* N#Cc1ccc(O)c(C2=NCC(c3cccc(Oc4ccccc4)c3)O2)c1 (centres undefined) | 15.6 µM
* Nc1cc(N)c2nc(-c3ccccc3)c(Nc3ccc(Cl)c(Cl)c3)nc2c1 | 31.3 µM
* COc1cc(CN2CCCCC2)cc2cc(C(=O)O)c(=O)oc12 | > 100 µM

compound COc1ccc(-c2cnnc3c(-c4cccc(C(F)(F)F)c4)cnn23)cc1 , TGI observed: > 100 µM

compound CS(=O)(=O)c1ccc([C@H]2O[C@@H](CO)C[C@]2(O)c2ccc(S(C)(=O)=O)cc2)cc1 , TGI observed: > 100 µM

compound O=C1C(Cl)N(c2ccccc2[N+](=O)[O-])C1c1c[nH]c2ccccc12 (centres undefined) , TGI observed: > 100 µM

compound COC(=O)[C@]12CC[C@@H](C)[C@H](C)[C@@H]1C1=CC[C@@H]3[C@@]4(C)C/C(=N\O)[C@H](O)[C@@]5(C)COC(=C45)C[C@@]3(C)[C@]1(C)CC2 , TGI observed: 21.8 µM

compound CCN1CCC(O)(C(C(=O)O)c2ccccc2)CC1 (centres undefined) , TGI observed: > 100 µM

src = PubChem BioAssay (NCI)
